Origin of the recorded values: PubChem BioAssay (NCI)

experiment: NCI Yeast Anticancer Drug Screen. Data for the mlh1 rad18 strain (AID 175); settings: S. cerevisiae mlh1 rad18 strain growth inhibition; at 5.0 µM (retest, dose inferred, filed as 0.5); stronger effect = higher value
The panel holds about 79,000 compounds, 15% with a hit somewhere; the sample as a whole holds those more often.
I'd be grateful if you could share measured growth inhibition for these entries.
Answers are plain numbers, in %.

Solved cases (4 shown):
- Compound: "CC1(C)CCC2(C(=O)O)CCC3(C)C(=CCC4C5(C)CC(O)C(O)C(C)(C(=O)O)C5CCC43C)C2C1 (stereo not given)"
  Units: "%"
  growth inhibition: 99
- Compound: "COc1ccc(C(O)/C(=N\\NC(N)=S)c2nc3ccc([N+](=O)[O-])cc3[nH]c2=O)cc1OC (stereo not given)"
  Units: "%"
  growth inhibition: 0
- Compound: "O=Nc1c2n[nH]c1CCCCCCCCC2"
  Units: "%"
  growth inhibition: 75
- Compound: "CCOC(=O)C(CC(=O)O)=C(c1ccccc1)c1ccccc1"
  Units: "%"
  growth inhibition: -10

Here's the next entry for you.
Ask | What value of growth inhibition has been reported for the following compound? O=[N+]([O-])c1ccc(C(Cl)Cc2ccc(Cl)cc2)cc1 (stereo not given)
Reply | -18

---

experiment: NCI Yeast Anticancer Drug Screen. Data for the mec2-1 strain (AID 157); conditions: S. cerevisiae mec2-1 strain, at 5.0 µM (retest, dose inferred, filed as 0.5)
About 79,000 compounds went through this panel and 15% of them were active in at least one assay; those are over-represented in the sample as a whole. Active and inactive are the calls of the source. No stated cut-off is given here; in the data, active means growth inhibition above about 70%; inactive means the rest.
Please state which outcome applies, choosing from 1 = active, -1 = inactive

Here's what some known entries look like.
- Compound: "COC(=O)/C(=N\\NC(=O)c1ccccc1O)C(C#N)c1ccc(Cl)cc1 (stereo not given)"
  Answer Label: -1
- Compound: "Cc1nc(C)c(C(=O)NNC(=O)C[N+](C)(C)C)cc1C(=O)NNC(=O)C[N+](C)(C)C"
  Answer Label: -1

Ask | Please indicate how the test categorized `O=C1OC(c2ccccc2)(c2ccccc2)Cc2ccccc21` .
Reply | -1

Ask | Please indicate how the test categorized `CCOc1ccc(N=NS(=O)(=O)O)cc1` .
Reply | -1

Ask | Please indicate how the test categorized `O=[N+]([O-])c1ccc(/C=N/O)o1` .
Reply | -1

Ask | Please indicate how the test categorized CN(C)CCC1(C2=CCCC2)CC/C(=C\c2ccc(Cl)cc2)C1=O (stereo not given) .
Reply | -1

Ask | Please indicate how the test categorized `Clc1ccccc1CN1COc2c(cc(Cl)c3cccnc23)C1` .
Reply | -1

---

experiment: NCI Yeast Anticancer Drug Screen. Data for the mec2-1 strain (AID 157); conditions: S. cerevisiae mec2-1 strain, at 50.0 µM (retest, dose inferred, filed as 5.0)
About 79,000 compounds went through this panel and 15% of them were active in at least one assay; those are over-represented in the sample as a whole. Active and inactive are the calls of the source. Rule as the data show it: active = growth inhibition above about 70%; inactive = the rest.
Please state which outcome applies, choosing from true (1) (active), false (0) (inactive)

Here's what some known entries look like.
- Molecule: "N=C(N)c1ccc(/C=C/c2ccc(C(=N)N)cc2)cc1"
  Answer Label: "true (1)"
- Molecule: "CCCCN(CCCC)CCNc1ccc(NS(=O)(=O)c2ccccc2)c2sc3ccccc3c(=O)c12"
  Answer Label: "true (1)"
- Molecule: "CCN(CC)Cc1ccc(Nc2cc(C)nc(/N=C(\\N)Nc3ccc(Cl)c(Cl)c3)n2)cc1"
  Answer Label: "true (1)"
- Molecule: "CC1=C(C(=O)Nc2ccc(Cl)c(Cl)c2)C(c2ccco2)C(C(=O)Nc2ccc(Cl)c(Cl)c2)=C(C)N1"
  Answer Label: "false (0)"

Ask | Please indicate how the test categorized CCOC(=O)C1=C(C)NC(=O)NC1c1coc2cc(C)cc(C)c2c1=O (stereo not given) .
Reply | false (0)
